assay-system: BRPF1 (Homo sapiens, UniProt P55201)
Sequence (P55201 626-740 limits assumed): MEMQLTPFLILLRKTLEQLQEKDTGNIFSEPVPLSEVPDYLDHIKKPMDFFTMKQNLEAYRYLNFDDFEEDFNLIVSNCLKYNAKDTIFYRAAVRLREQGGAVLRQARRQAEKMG
test-name: BromoScan selectivity panel (Kd)
Type: binding
condition-description: Table 9; read-out: BromoScan Kd, nM BRPF1
endpoint-name: Kd

[Q] Requested read-out: Kd. Entry: Cc1noc(C)c1-c1ccc(-c2nc3cnccn3c2NC(C)(C)C)cc1 [UMB32]
[A] ≥ 40000 nM

---

assay-system: CBP (Homo sapiens)
Sequence (Q92793 1081-1197 limits assumed): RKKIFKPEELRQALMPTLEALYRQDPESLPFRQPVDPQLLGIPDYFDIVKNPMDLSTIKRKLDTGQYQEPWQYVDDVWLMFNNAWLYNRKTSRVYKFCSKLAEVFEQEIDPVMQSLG
test-name: BromoScan selectivity panel (Kd)
pKd values for the compounds below.
Keep in mind that pKd stands for -log10 of concentration in molar terms.

[Q] Record request: pKd value, item CCNC(=O)C[C@@H]1N=C(c2ccc(Cl)cc2)c2cc(OC)ccc2-n2c(C)nnc21 [I-BET, reference compound]
[A] 4.12

[Q] Would you mind telling me what pKd value was observed for Cc1sc2c(c1C)C(c1ccc(Cl)cc1)=NC(CC(=O)OC(C)(C)C)c1nnc(C)n1-2 (centres unmarked) [JQ1, reference compound] ?
[A] 4.62

---

assay-system: BAZ2B (Homo sapiens, UniProt Q9UIF8)
Sequence (Q9UIF8 2054-2168 limits assumed): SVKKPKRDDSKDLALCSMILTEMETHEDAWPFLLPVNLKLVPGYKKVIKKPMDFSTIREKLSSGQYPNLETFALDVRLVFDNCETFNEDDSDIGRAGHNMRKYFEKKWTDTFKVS
test-name: BromoScan selectivity panel (Kd)
Type: binding
condition-description: Table 9; read-out: BromoScan Kd, nM BAZ2B
endpoint-name: Kd

[Q] # get_value(readout= Kd, system= BAZ2B (Homo sapiens, UniProt Q9UIF8)) for Cc1noc(C)c1-c1ccc(-c2nc3cnccn3c2NC(C)(C)C)cc1 [UMB32]
[A] ≥ 40000 nM

---

assay-system: BRPF3 (Homo sapiens, UniProt Q9ULD4)
Sequence (Q9ULD4 589-693 limits assumed): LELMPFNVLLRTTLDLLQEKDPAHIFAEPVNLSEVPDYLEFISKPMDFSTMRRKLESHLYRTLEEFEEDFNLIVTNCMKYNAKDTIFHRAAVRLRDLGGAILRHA
test-name: BromoScan selectivity panel (Kd)
Assay type: binding
condition-description: Table 9; read-out: BromoScan Kd, nM BRDF3
endpoint-name: Kd

[Q] Looking for the measured Kd of Cc1noc(C)c1-c1ccc(-c2nc3cnccn3c2NC(C)(C)C)cc1 , can you help?
[A] ≥ 40000 nM

---

assay-system: PERM1(2) (Homo sapiens)
Construct: PERM1(2)
Sequence (Q86U86 177-287 limits assumed): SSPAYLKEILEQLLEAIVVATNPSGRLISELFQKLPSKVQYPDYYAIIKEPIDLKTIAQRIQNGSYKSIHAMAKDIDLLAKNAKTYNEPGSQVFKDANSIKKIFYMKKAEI
test-name: BromoScan selectivity panel (Kd)
Type: binding
condition-description: Table 9; read-out: BromoScan Kd, nM PERM1(2)
endpoint-name: Kd

[Q] Please look up its Kd: Cc1noc(C)c1-c1ccc(-c2nc3cnccn3c2NC(C)(C)C)cc1
[A] ≥ 40000 nM

---

assay-system: TRIM33(PHD Bromo.) (Homo sapiens, UniProt Q9UPN9)
Construct: TRIM33(PHD, Bromo.); TRIM33(PHD Bromo.); fused on or other part: The vendor panel's detection tag or display handle
Sequence (Q9UPN9 whole entry, the tested form may be a part): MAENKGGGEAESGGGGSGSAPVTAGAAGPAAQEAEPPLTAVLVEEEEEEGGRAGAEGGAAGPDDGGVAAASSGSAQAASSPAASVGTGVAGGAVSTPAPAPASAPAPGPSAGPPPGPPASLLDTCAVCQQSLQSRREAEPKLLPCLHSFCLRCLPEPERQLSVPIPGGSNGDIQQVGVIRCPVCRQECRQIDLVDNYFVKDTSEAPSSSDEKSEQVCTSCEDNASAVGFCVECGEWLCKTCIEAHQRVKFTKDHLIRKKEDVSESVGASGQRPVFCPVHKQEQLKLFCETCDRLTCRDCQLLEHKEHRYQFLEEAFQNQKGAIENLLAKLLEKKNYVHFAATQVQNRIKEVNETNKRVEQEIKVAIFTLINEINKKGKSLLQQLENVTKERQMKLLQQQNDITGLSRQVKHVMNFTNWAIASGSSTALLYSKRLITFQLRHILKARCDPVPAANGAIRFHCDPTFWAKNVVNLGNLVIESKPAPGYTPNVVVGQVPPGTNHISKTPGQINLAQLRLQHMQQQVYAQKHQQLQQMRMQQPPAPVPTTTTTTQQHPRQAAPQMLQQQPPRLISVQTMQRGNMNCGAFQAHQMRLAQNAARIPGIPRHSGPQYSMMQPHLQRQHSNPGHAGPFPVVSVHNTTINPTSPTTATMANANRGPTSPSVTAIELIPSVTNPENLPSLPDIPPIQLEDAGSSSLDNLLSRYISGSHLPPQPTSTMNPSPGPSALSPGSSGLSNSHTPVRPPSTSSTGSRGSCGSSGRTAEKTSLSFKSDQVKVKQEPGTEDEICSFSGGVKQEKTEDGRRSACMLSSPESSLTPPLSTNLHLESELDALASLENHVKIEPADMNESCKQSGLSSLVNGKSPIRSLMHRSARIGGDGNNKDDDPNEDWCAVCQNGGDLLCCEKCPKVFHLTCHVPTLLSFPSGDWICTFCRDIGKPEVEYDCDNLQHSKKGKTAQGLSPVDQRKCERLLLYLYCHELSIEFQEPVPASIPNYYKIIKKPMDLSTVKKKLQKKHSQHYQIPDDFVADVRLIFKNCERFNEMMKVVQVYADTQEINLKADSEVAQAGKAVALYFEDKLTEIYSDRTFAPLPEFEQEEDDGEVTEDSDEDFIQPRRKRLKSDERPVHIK
test-name: BromoScan selectivity panel (Kd)
Format: binding
condition-description: Table 9; read-out: BromoScan Kd, nM TRIM33(PHD, Bromo.)
endpoint-name: Kd

[Q] // query Kd value for entry Cc1noc(C)c1-c1ccc(-c2nc3cnccn3c2NC(C)(C)C)cc1 [UMB32]
[A] ≥ 40000 nM

---

assay-system: BRD4 (Homo sapiens)
test-name: In vitro AlphaScreen protein binding assay (competition with biotinylated JQ1)
condition-description: Table 1; in vitro, AlphaScreen, inhibiting the activity of BRD4
pIC50: −log10 of the molar value.
Lab note: anything with pIC50 at or over 5 counts as 1; the rest go in -1.

Example entries begin here.
molecule="Cc1noc(C)c1-c1cccc(C2Nc3ccccc3NC3=C2C(=O)OC3)c1 (centres unmarked)" class_assignment=1
molecule=Cc1noc(C)c1-c1ccc(-c2nc3cnccn3c2NCc2ccccc2)cc1 class_assignment=-1
molecule=COc1ccc(Nc2c(-c3ccc(-c4c(C)noc4C)cc3)nc3ccccn23)cc1 class_assignment=1

[Q] Given the entry COc1ccc(Nc2c(-c3ccc(-c4c(C)noc4C)cc3)nc3cc(OC)ncn23)cc1 , answer whether its pIC50 meets or surpasses 5.
[A] 1

[Q] Tell me whether pIC50 is at least 5 here: Cc1noc(C)c1-c1ccc(-c2nc3ccc(Cl)cn3c2NC(C)(C)C)cc1
[A] 1

[Q] Threshold query (pIC50 >= 5) on COc1ccc(Nc2c(-c3ccc(-c4c(C)noc4C)cc3)nc3ccc(Cl)cn23)cc1
[A] -1

[Q] Given the entry Cc1noc(C)c1-c1ccc(-c2nc3ccccn3c2NC2CCCCC2)cc1 , answer whether its pIC50 meets or surpasses 5.
[A] 1

[Q] Does the reported pIC50 for Cc1noc(C)c1-c1cccc(-c2nc3ccccn3c2NCc2ccccc2)c1 fall at or above the 5 mark?
[A] 1

[Q] Hello, I need to know if Cc1noc(C)c1-c1ccc(-c2nc3ccccn3c2NC(C)(C)C)cc1 has measured pIC50 not below 5. Thanks!
[A] 1

[Q] Could you tell me if the measured pIC50 of Cc1noc2ccc(-c3ccc(-c4nc5ccccn5c4NCc4ccccc4)cc3)cc12 reaches 5 or more?
[A] -1

Reference for the values: patent US9975896B2
